assayed system: Adrenergic receptor alpha (Rattus norvegicus) (UniProt P15823+P23944+P43140+P22086+P19328+P22909)
assay protocol: The alpha-1/alpha-2 selectivity ratio is the antilog of the difference between pA2 values at alpha-1 and alpha-2 adrenoceptors
Please provide measured Selectivity for the entries that follow.
Give bare numbers.

>  <compound>
COc1cccc(OC)c1OCCNC[C@@H]1COc2ccccc2[C@H]1O

>  <Selectivity>
17

$$$$
>  <compound>
COc1cccc(OC)c1OCCNCC1COc2ccccc2O1 (stereo not given)

>  <Selectivity>
407

$$$$
>  <compound>
COc1cccc(OC)c1OCCNC[C@@H]1COc2ccccc2[C@@H]1O

>  <Selectivity>
13

$$$$
>  <compound>
COc1cccc(OC)c1OCCNC[C@@H]1CS(=O)(=O)c2ccccc2O1

>  <Selectivity>
6

$$$$
>  <compound>
COc1cccc(OC)c1OCCNC[C@@H]1C[S@+]([O-])c2ccccc2O1 (relative stereo)

>  <Selectivity>
20

$$$$
>  <compound>
COc1cccc(OC)c1OCCNCc1cccc2ccccc12

>  <Selectivity>
8

$$$$
>  <compound>
COc1cccc(OC)c1OCCNC[C@@H]1COc2ccccc2S1

>  <Selectivity>
71

$$$$
>  <compound>
COc1cccc(OC)c1OCCNC[C@@H]1CSc2ccccc2C1=O

>  <Selectivity>
229

$$$$

Below are some compounds; for each one, tell me its Selectivity.
1. COc1cccc(OC)c1OCCNC[C@@H]1C[S@@+]([O-])c2ccccc2O1 (relative stereo)
2. COc1cccc(OC)c1OCCNC[C@@H]1CCc2ccccc2O1

Response line:
1. 30
2. 141

Below are some compounds; for each one, tell me its Selectivity.
1. COc1cccc(OC)c1OCCNC[C@@H]1COc2ccccc2C1=O
2. COc1cccc(OC)c1OCCNCc1cc2ccccc2[nH]1
3. COc1cccc(OC)c1OCCNC[C@@H]1CSc2ccccc2O1
4. COc1cccc(OC)c1OCCNC[C@@H]1COc2ccccc2C1
5. COc1cccc(OC)c1OCCNCc1ccc2ccccc2c1

Response line:
1. 257
2. 4
3. 469
4. 49
5. 22
